Reported Plant response rating, Bermudagrass values for a set of compounds
Tested on: bermudagrass (Cynodon dactylon)
Assay: Test B pre-/postemergence plant response
Format: in vivo
Settings: Postemergence, 125 g ai/ha; visual rating after 13 to 15 days, scale 0 (no effect) to 100 (complete control)
A bare number is all that is needed in reply.

Worked examples follow.
>>> reported_value("O=C1CCCC(O)=C1C(=O)c1cnc(-c2ccc(Br)cc2)n(-c2ccccc2)c1=O")
95
>>> reported_value("O=C1CCCC(O)=C1C(=O)c1cnc(-c2ccccc2)n(C2CC2)c1=O")
85
>>> reported_value("Cc1cccc(-n2c(-c3cccc(Cl)c3)ncc(C(=O)C3=C(O)CCCC3=O)c2=O)c1")
95
>>> reported_value("CCCn1c(-c2ccccc2)ncc(C(=O)C2=C(O)CCCC2=O)c1=O")
100

Exercise: Please give the measured Plant response rating, Bermudagrass for this compound: `CCCc1ncc(C(=O)C2=C(O)CCCC2=O)c(=O)n1-c1cccc(C)c1`
Key: 85

Exercise: Please give the measured Plant response rating, Bermudagrass for this compound: `Cc1cc(F)ccc1-n1c(-c2ccccc2)ncc(C(=O)C2=C(O)CCCC2=O)c1=O`
Key: 98

Exercise: Please give the measured Plant response rating, Bermudagrass for this compound: `CCCn1c(-c2ccsc2)ncc(C(=O)C2=C(O)CCCC2=O)c1=O`
Key: 85

Exercise: Please give the measured Plant response rating, Bermudagrass for this compound: `Cc1ccc(F)c(-n2c(-c3ccccc3)ncc(C(=O)C3=C(O)CCCC3=O)c2=O)c1`
Key: 90

These measurements were taken from patent US8952024B2.
